Each entry below carries its reported CC50.
System: human normal cells HGF, HPC, HPLF
PROTOCOL: Cytotoxicity, average over the three human normal cells
Assay type: cell-based
CONDITION DESCRIPTION: average of HGF, read-out: AVE CC50, human normal cells

MOLECULE | TARGET OR TEST SYSTEM | CC50
CN(C)c1ccc(/C=C2\CN(C(=O)C(=O)N3C/C(=C\c4ccc(N(C)C)cc4)C(=O)/C(=C/c4ccc(N(C)C)cc4)C3)C/C(=C\c3ccc(N(C)C)cc3)C2=O)cc1 [Compound 2i] | human normal cells HGF, HPC, HPLF | > 100 µM
COc1ccc(/C=C2\CN(C(=O)C(=O)N3C/C(=C\c4ccc(OC)cc4)C(=O)/C(=C/c4ccc(OC)cc4)C3)C/C(=C\c3ccc(OC)cc3)C2=O)cc1 [Compound 2h] | human normal cells HGF, HPC, HPLF | > 81.7 µM
O=C1/C(=C/c2ccc(Cl)c(Cl)c2)CN(C(=O)CC(=O)N2C/C(=C\c3ccc(Cl)c(Cl)c3)C(=O)/C(=C/c3ccc(Cl)c(Cl)c3)C2)C/C1=C\c1ccc(Cl)c(Cl)c1 [Compound 3d] | human normal cells HGF, HPC, HPLF | > 100 µM
